Data credit: paper PMC5120204

- Assay Text: Pharmacokinetics in TPTX rats
- Type: in vivo, rat
- Particulars: female, Crl:CD(SD), rat, plasma, po, p.o. 18 mg kg-1, read-out: Tmax
Readout Label: Tmax

According to the records, this compound Cc1cc(N2C(=O)NC(=O)C2(C)C)cc(C)c1CCS(=O)(=O)N1CCC2(CC1)N=C(c1ccc(OC(F)(F)F)cc1)NC2=O [PCO371] displays Tmax of 3.7 h

----------
- Assay Text: Pharmacokinetics in TPTX rats
- Format: in vivo, rat
- Particulars: female, Crl:CD(SD), rat, plasma, po, p.o. 18 mg kg-1
Readout Label: half-life (h)
Give bare numbers, in h.

According to the records, this compound Cc1cc(N2C(=O)NC(=O)C2(C)C)cc(C)c1CCS(=O)(=O)N1CCC2(CC1)N=C(c1ccc(OC(F)(F)F)cc1)NC2=O displays half-life of 4.7

----------
- Subject Of Test: hPTHR1 (Homo sapiens)
- Construct: similar to that of cells expressing full-length hPTHR1; expressed in transfected cells; host or cells: COS-7 (transient, FuGENE HD)
- Sequence (Q03431 27-593 E93Y/D94P/K95Y/E96D/A97V/T99D/G100Y/S101A): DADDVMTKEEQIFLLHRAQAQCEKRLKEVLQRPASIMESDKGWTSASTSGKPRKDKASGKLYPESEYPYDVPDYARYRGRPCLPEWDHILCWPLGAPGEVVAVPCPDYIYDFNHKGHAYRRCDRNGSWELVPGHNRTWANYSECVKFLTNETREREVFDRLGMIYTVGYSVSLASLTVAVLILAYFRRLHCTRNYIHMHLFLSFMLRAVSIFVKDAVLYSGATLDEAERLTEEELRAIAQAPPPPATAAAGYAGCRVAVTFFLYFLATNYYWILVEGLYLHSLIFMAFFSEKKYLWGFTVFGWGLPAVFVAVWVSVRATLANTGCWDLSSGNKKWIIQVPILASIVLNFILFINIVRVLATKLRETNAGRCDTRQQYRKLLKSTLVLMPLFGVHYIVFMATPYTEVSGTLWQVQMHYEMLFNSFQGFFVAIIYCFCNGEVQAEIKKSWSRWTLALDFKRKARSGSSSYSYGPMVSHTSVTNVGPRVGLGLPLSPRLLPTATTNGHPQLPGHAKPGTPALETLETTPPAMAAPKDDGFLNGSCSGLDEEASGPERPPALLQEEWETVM
- Assay Text: Phospholipase C activity assay ([3H]-inositol phosphate) in COS-7 cells expressing hPTHR1
- Format: cell-based
- Particulars: COS-7 cells expressing hPTHR1, 40 min; concentration that achieves the EC50 for hPTH(1–34)
Readout Label: pEC50
Answers are plain numbers, as −log10 of the molar value.

Case Cc1cc(N2C(=O)NC(=O)C2(C)C)cc(C)c1CCS(=O)(=O)N1CCC2(CC1)N=C(c1ccc(OC(F)(F)F)cc1)NC2=O , hPTHR1 (Homo sapiens), pEC50 recorded as 4.77

----------
- Assay Text: Pharmacokinetics in normal rats
- Particulars: female, RccHan:WIST, rat, plasma, po, 6 mg/kg
Readout Label: Cmax (ng/mL)
Answers are plain numbers, in ng/mL.

According to the records, this molecule Cc1cc(N2C(=O)NC(=O)C2(C)C)cc(C)c1CCS(=O)(=O)N1CCC2(CC1)N=C(c1ccc(OC(F)(F)F)cc1)NC2=O displays Cmax of 727

----------
- Assay Text: Pharmacokinetics in OVX rats
- Format: in vivo
- Particulars: female, Crl:CD(SD), rat, plasma, iv, i.v. 3 mg kg-1
Readout Label: half-life (h)
One number for each entry, in h.

According to the records, this compound Cc1cc(N2C(=O)NC(=O)C2(C)C)cc(C)c1CCS(=O)(=O)N1CCC2(CC1)N=C(c1ccc(OC(F)(F)F)cc1)NC2=O displays half-life of 2.4

----------
- Assay Text: Pharmacokinetics in OVX rats
- Format: in vivo
- Particulars: female, Crl:CD(SD), rat, plasma, po, p.o. 30 mg kg-1
Readout Label: AUC
Reply with the number and its unit after it.

According to the records, this compound Cc1cc(N2C(=O)NC(=O)C2(C)C)cc(C)c1CCS(=O)(=O)N1CCC2(CC1)N=C(c1ccc(OC(F)(F)F)cc1)NC2=O displays AUC of 29500 ng·h/mL

----------
- Assay Text: Pharmacokinetics in TPTX rats
- Assay type: in vivo, rat
- Particulars: female, Crl:CD(SD), rat, plasma, po, p.o. 6 mg kg-1, read-out: Cmax
Readout Label: Cmax (ng/mL)
Give bare numbers, in ng/mL.

According to the records, this compound Cc1cc(N2C(=O)NC(=O)C2(C)C)cc(C)c1CCS(=O)(=O)N1CCC2(CC1)N=C(c1ccc(OC(F)(F)F)cc1)NC2=O [PCO371] displays Cmax of 216

----------
- Assay Text: Pharmacokinetics in normal rats
- Particulars: female, RccHan:WIST, rat, plasma, po, 18 mg/kg
Readout Label: AUC(0-inf) (ng·h/mL)
Answers are plain numbers, in ng·h/mL.

According to the records, this compound Cc1cc(N2C(=O)NC(=O)C2(C)C)cc(C)c1CCS(=O)(=O)N1CCC2(CC1)N=C(c1ccc(OC(F)(F)F)cc1)NC2=O displays AUC(0-inf) of 18600

----------
- Assay Text: Pharmacokinetics in TPTX rats
- Format: in vivo, rat
- Particulars: female, Crl:CD(SD), rat, plasma, po, p.o. 6 mg kg-1, read-out: Tmax
Readout Label: Tmax (h)
Give bare numbers, in h.

According to the records, this compound Cc1cc(N2C(=O)NC(=O)C2(C)C)cc(C)c1CCS(=O)(=O)N1CCC2(CC1)N=C(c1ccc(OC(F)(F)F)cc1)NC2=O [PCO371] displays Tmax of 1.3

----------
- Assay Text: Pharmacokinetics in normal rats
- Particulars: female, RccHan:WIST, rat, plasma, po, 18 mg/kg
Readout Label: Cmax (ng/mL)
One number for each entry, in ng/mL.

According to the records, this molecule Cc1cc(N2C(=O)NC(=O)C2(C)C)cc(C)c1CCS(=O)(=O)N1CCC2(CC1)N=C(c1ccc(OC(F)(F)F)cc1)NC2=O displays Cmax of 4560

----------
- Assay Text: Pharmacokinetics in OVX rats
- Type: in vivo
- Particulars: female, Crl:CD(SD), rat, plasma, iv, i.v. 10 mg kg-1
Readout Label: half-life
Reply with the number and its unit after it.

According to the records, this molecule Cc1cc(N2C(=O)NC(=O)C2(C)C)cc(C)c1CCS(=O)(=O)N1CCC2(CC1)N=C(c1ccc(OC(F)(F)F)cc1)NC2=O displays half-life of 2.2 h

----------
- Assay Text: Pharmacokinetics in TPTX rats
- Type: in vivo, rat
- Particulars: female, Crl:CD(SD), rat, plasma, po, p.o. 2 mg kg-1, read-out: Tmax
Readout Label: Tmax (h)
Answers are plain numbers, in h.

According to the records, this compound Cc1cc(N2C(=O)NC(=O)C2(C)C)cc(C)c1CCS(=O)(=O)N1CCC2(CC1)N=C(c1ccc(OC(F)(F)F)cc1)NC2=O displays Tmax of 1.4

----------
- Assay Text: Pharmacokinetics in normal rats
- Particulars: female, RccHan:WIST, rat, plasma, po, 18 mg/kg
Readout Label: half-life (h)
Give bare numbers, in h.

According to the records, this molecule Cc1cc(N2C(=O)NC(=O)C2(C)C)cc(C)c1CCS(=O)(=O)N1CCC2(CC1)N=C(c1ccc(OC(F)(F)F)cc1)NC2=O displays half-life of 1.7

----------
- Assay Text: Pharmacokinetics in normal rats
- Particulars: female, RccHan:WIST, rat, plasma, po
Readout Label: half-life

According to the records, this compound Cc1cc(N2C(=O)NC(=O)C2(C)C)cc(C)c1CCS(=O)(=O)N1CCC2(CC1)N=C(c1ccc(OC(F)(F)F)cc1)NC2=O displays half-life of 1.5 to 1.7 h

----------
- Assay Text: Pharmacokinetics in normal rats
- Particulars: female, RccHan:WIST, rat, plasma, po, 2 mg/kg
Readout Label: Cmax (ng/mL)
Give bare numbers, in ng/mL.

According to the records, this compound Cc1cc(N2C(=O)NC(=O)C2(C)C)cc(C)c1CCS(=O)(=O)N1CCC2(CC1)N=C(c1ccc(OC(F)(F)F)cc1)NC2=O displays Cmax of 92.5

----------
- Assay Text: Pharmacokinetics in OVX rats
- Assay type: in vivo
- Particulars: female, Crl:CD(SD), rat, plasma, iv, i.v. 3 mg kg-1, read-out: C2min (concentration at 2 min after administration)
Readout Label: concentration at 2 min (ng/mL)
Give bare numbers, in ng/mL.

According to the records, this molecule Cc1cc(N2C(=O)NC(=O)C2(C)C)cc(C)c1CCS(=O)(=O)N1CCC2(CC1)N=C(c1ccc(OC(F)(F)F)cc1)NC2=O displays concentration at 2 min of 17500

----------
- Assay Text: Pharmacokinetics in normal rats
- Particulars: female, RccHan:WIST, rat, plasma, po, 6 mg/kg
Readout Label: half-life (h)
One number for each entry, in h.

According to the records, this molecule Cc1cc(N2C(=O)NC(=O)C2(C)C)cc(C)c1CCS(=O)(=O)N1CCC2(CC1)N=C(c1ccc(OC(F)(F)F)cc1)NC2=O displays half-life of 1.4

----------
- Assay Text: Pharmacokinetics in TPTX rats
- Assay type: in vivo, rat
- Particulars: female, Crl:CD(SD), rat, plasma, po, p.o. 6 mg kg-1, read-out: AUC
Readout Label: AUC (ng·h/mL)
Answers are plain numbers, in ng·h/mL.

According to the records, this molecule Cc1cc(N2C(=O)NC(=O)C2(C)C)cc(C)c1CCS(=O)(=O)N1CCC2(CC1)N=C(c1ccc(OC(F)(F)F)cc1)NC2=O displays AUC of 1590

----------
- Assay Text: Pharmacokinetics in normal rats
- Particulars: female, RccHan:WIST, rat, plasma, po, 18 mg/kg
Readout Label: Tmax (h)
Answers are plain numbers, in h.

According to the records, this compound Cc1cc(N2C(=O)NC(=O)C2(C)C)cc(C)c1CCS(=O)(=O)N1CCC2(CC1)N=C(c1ccc(OC(F)(F)F)cc1)NC2=O displays Tmax of 1.3

----------
- Assay Text: Pharmacokinetics in TPTX rats
- Format: in vivo, rat
- Particulars: female, Crl:CD(SD), rat, plasma, po, p.o. 2 mg kg-1, read-out: Cmax
Readout Label: Cmax
Reply with the number and its unit after it.

According to the records, this compound Cc1cc(N2C(=O)NC(=O)C2(C)C)cc(C)c1CCS(=O)(=O)N1CCC2(CC1)N=C(c1ccc(OC(F)(F)F)cc1)NC2=O displays Cmax of 95.6 ng/mL
